Entry source: the supplement of paper PMC7125110

Parameter: KM. Scope: all listed entries.
B1: glmS ribozyme (parent)
chain: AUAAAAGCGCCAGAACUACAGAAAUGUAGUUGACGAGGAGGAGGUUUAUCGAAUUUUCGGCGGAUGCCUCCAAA

# Variants of: B1
# Assay: KM; higher = weaker cofactor use; RNA array
# Condition details: with glucosamine-6-phosphate
State just the number; it will be interpreted in µM.

>>> recorded_result("AUAAAAGCGCCAGAACUACAGAAAUGUAGUUGACGAGGAGGAGGUUUAUCGAAAUUUCGGCGGAUGCGUCCAAA [U54A C68G]")
31

Please list KM recorded for the variant AUAAAAGCGCCAGAACUACAGAAAUGUAGUUGACGAGGAUGAGGUUUAUCGACUUUUCGGCGGAUGCCUCCAAA [G40U A53C] 2780

In one line, give reported KM of the entry AUAAAAGCGCCAGAACUACAGAAAUGUAGUUGACGAGGAGGAGGUUGAUCGAAUUUUCGGCGGGUGCCUCCAAA [U47G A64G] . 1570

Identify measured KM associated with AUAAAAGCGCCAGAACUACAGAAAUGUAGUUGACGAGGAGGAGGUUUAUCGAGUUAUCGGCGGAUGCCUCCAAA [A53G U56A] 1830

Provide only the value of recorded KM for AUAAAAGCGCCAGAGCUACAGAAAUGUAGUUGACGAGGAGGAGGUUCAUCGAAUUUUCGGCGGAUGCCUCCAAA [A15G U47C] 1660

Query KM for AUAAAAGCGCCAGAACUACAGAAAUGUAGUCGACGAGGGGGAGGUUUAUCGAAUUUUCGGCGGAUGCCUCCAAA [U31C A39G] 4940
